Cited source for all entries: patent US11827582B2

experiment: Caco-2 A-B and B-A permeability test; format: in vitro ADME; details: human; Caco-2, apical to basolateral, pH 7.4; read-out: A-B perm
Consider the following compounds; for each one, report its Papp A→B.
Answer shape: numeric part, then the unit.

Examples from the recorded data:
Challenge: Please report the recorded Papp A→B for `N#Cc1cccc(CNCc2ccc(CN3CCOCC3)cc2)c1` .
Response given: 59.4 ×10⁻⁶ cm/s

Challenge: Also check `CN(C)Cc1ccc(CNCc2ccc3c(c2)OCCO3)cc1`
Response given: 30 ×10⁻⁶ cm/s

Challenge: Record: `N#Cc1ccc(CNCc2cccc(CN3CCCC3)c2)cc1`
Response given: 18.4 ×10⁻⁶ cm/s

Challenge: Similarly, CN(C)C(=O)C(c1ccccc1)N1CCN(c2ccc(O)cc2)CC1 (centres unmarked) ?
Response given: 61.6 ×10⁻⁶ cm/s

Challenge: Moving on to the next compound: `Cc1cc(CN2CC=C(c3ccc(O)cc3)CC2)no1`
Response given: 74.4 ×10⁻⁶ cm/s

Challenge: Please do the same for CC(C)NCC(O)COc1cccc2ccccc12 (centres unmarked) [propranolol, reference compound] as well.
Response given: 60.6 ×10⁻⁶ cm/s

Challenge: Consider next the compound COc1cc2c(c(OC)c1OC)-c1ccc(OC)c(=O)cc1[C@@H](NC(C)=O)CC2 [colchicine, reference compound] in the same way.
Response given: 0.1 ×10⁻⁶ cm/s

Next compound, Papp A→B to be filled in.
Challenge: Would you kindly share the measured Papp A→B for `CC(=O)Nc1ccc(CNCCc2cccc(Cl)c2)cc1` ?
Response given: 101 ×10⁻⁶ cm/s
